B1: ATGL (PNPLA2, patatin-like phospholipase domain-containing protein 2), human, full length / CGI-58 (ABHD5, 1-acylglycerol-3-phosphate O-acyltransferase ABHD5), human (parent)
chain 1: MFPREKTWNISFAGCGFLGVYYVGVASCLREHAPFLVANATHIYGASAGALTATALVTGVCLGEAGAKFIEVSKEARKRFLGPLHPSFNLVKIIRSFLLKVLPADSHEHASGRLGISLTRVSDGENVIISHFNSKDELIQANVCSGFIPVYCGLIPPSLQGVRYVDGGISDNLPLYELKNTITVSPFSGESDICPQDSSTNIHELRVTNTSIQFNLRNLYRLSKALFPPEPLVLREMCKQGYRDGLRFLQRNGLLNRPNPLLALPPARPHGPEDKDQAVESAQAEDYSQLPGEDHILEHLPARLNEALLEACVEPTDLLTTLSNMLPVRLATAMMVPYTLPLESALSFTIRLLEWLPDVPEDIRWMKEQTGSICQYLVMRAKRKLGRHLPSRLPEQVELRRVQSLPSVPLSCAAYREALPGWMRNNLSLGDALAKWEECQRQLLLGLFCTNVAFPPEALRMRAPADPAPAPADPASPQHQLAGPAPLLSTPAPEARPVIGALGL
chain 2: MAAEEEEVDSADTGERSGWLTGWLPTWCPTSISHLKEAEEKMLKCVPCTYKKEPVRISNGNKIWTLKFSHNISNKTPLVLLHGFGGGLGLWALNFGDLCTNRPVYAFDLLGFGRSSRPRFDSDAEEVENQFVESIEEWRCALGLDKMILLGHNLGGFLAAAYSLKYPSRVNHLILVEPWGFPERPDLADQDRPIPVWIRALGAALTPFNPLAGLRIAGPFGLSLVQRLRPDFKRKYSSMFEDDTVTEYIYHCNVQTPSGETAFKNMTIPYGWAKRPMLQRIGKMHPDIPVSVIFGARSCIDGNSGTSIQSLRPHSYVKTIAILGAGHYVYADQPEEFNQKVKEICDTVD

- Variants of: B1
- assay.text: LUMIER: Protein A-ATGL variant and firefly luciferase-partner co-expressed in HEK293T, lysates immunoprecipitated on IgG-coated plates, co-precipitated partner measured as luciferase luminescence
- settings: with CGI-58 (ABHD5, 1-acylglycerol-3-phosphate O-acyltransferase ABHD5), transient co-transfection, IgG-coated LUMITRAC plates, 2 h at 4 °C, three PBS washes, Bright-Glo luciferase reagent, triplicates per assay, two …, parent: 0.32, not graded, scale: log2 fold change of co-immunoprecipitated luminescence relative to wild-type ATGL within each experiment
Response field class: string, computed from recorded screen value by ranges one (below -0.5), two (-0.5 to below -0.08), three (-0.08 or more)

chain 1 E314A :: two
chain 1 G59L :: two
chain 1 R113L :: one
chain 1 L62K :: one
chain 1 L178A :: one

// query GET /class?item= chain 1 G66A
// result three
